System: JNK3 (Homo sapiens)
Sequence (P53779 whole entry): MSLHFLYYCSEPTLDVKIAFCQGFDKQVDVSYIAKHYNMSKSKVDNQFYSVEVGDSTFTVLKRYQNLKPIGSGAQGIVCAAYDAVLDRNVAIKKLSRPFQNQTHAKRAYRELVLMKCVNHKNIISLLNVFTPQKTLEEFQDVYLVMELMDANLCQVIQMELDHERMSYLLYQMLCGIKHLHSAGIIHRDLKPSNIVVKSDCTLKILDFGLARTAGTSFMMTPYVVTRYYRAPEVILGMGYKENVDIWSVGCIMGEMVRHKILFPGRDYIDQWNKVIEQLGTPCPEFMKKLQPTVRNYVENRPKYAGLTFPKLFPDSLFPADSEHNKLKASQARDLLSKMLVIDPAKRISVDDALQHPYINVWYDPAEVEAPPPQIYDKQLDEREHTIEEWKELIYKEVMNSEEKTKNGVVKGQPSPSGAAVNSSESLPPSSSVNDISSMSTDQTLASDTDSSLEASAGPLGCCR
Assay notes: JNK3 enzymatic inhibitory activity (IC50)
Type: biochemical
Metric: IC50 (nM)
Please respond with the number in nM and leave the unit unwritten.

- Compound: "N#CCc1cc(-c2ccc(Cl)c(Cl)c2)n(-c2ccnc(N[C@@H]3CCN(C(=O)C4CC4)C3)n2)n1 [8a]"
  Metric: "IC50"
  Observed value: 227

# evaluate next
q: State the recorded IC50 for this entry: N#CCc1cc(-c2ccc(Cl)c(Cl)c2)n(-c2ccnc(N[C@H]3CCN(C(=O)C4CC4)C3)n2)n1 [9a]
a: 3110

###

System: UniProt P53779
Assay notes: JNK3 enzymatic inhibitory activity (IC50)
Format: biochemical
Assay setup: enzymatic activity, Table 1; read-out: JNK3 IC50
Metric: pIC50
Please report pIC50 as the negative decimal logarithm of the molar concentration, giving only the number.

Example cases with answers are listed next.
- Compound: "NC(=O)Cc1cc(-c2ccc(Cl)c(Cl)c2)n(-c2ccnc(N[C@H]3CCCN(C(=O)C4CC4)C3)n2)n1 [11a]"
  Observed value: 5.84
- Compound: "N#CCc1cc(-c2ccc3ccccc3c2)n(-c2ccnc(N[C@@H]3CCN(C(=O)C4CC4)C3)n2)n1"
  Observed value: 6.44

# evaluate next
q: State the recorded pIC50 for this entry: N#CCc1cc(-c2ccc(Cl)c(Cl)c2)n(-c2ccnc(NC3CN(C(=O)C4CC4)C3)n2)n1 [10a]
a: 5.55

###

System: JNK3 (Homo sapiens)
Assay notes: JNK3 enzymatic inhibitory activity (IC50)
Format: biochemical
Assay setup: enzymatic activity, Table 1; read-out: JNK3 IC50
Excerpt: In an effort to reduce the molecular weight, the piperidine ring was diversified into pyrrolidine and azetidine with less carbon atoms.
pIC50 reference
Please report pIC50 as the negative decimal logarithm of the molar concentration, giving only the number.

Example cases with answers are listed next.
- Compound: "N#CCc1cc(-c2ccc3c(c2)OCO3)n(-c2ccnc(N[C@@H]3CCN(C(=O)C4CC4)C3)n2)n1"
  System: "JNK3 (Homo sapiens)"
  pIC50: 5.66
- Compound: "N#CCc1cc(-c2ccc3c(c2)CCO3)n(-c2ccnc(N[C@H]3CCCN(C(=O)C4CC4)C3)n2)n1"
  System: "JNK3 (Homo sapiens)"
  pIC50: 5.10
- Compound: "N#CCc1cc(-c2ccc3c(c2)CCO3)n(-c2ccnc(N[C@@H]3CCN(C(=O)C4CC4)C3)n2)n1"
  System: "JNK3 (Homo sapiens)"
  pIC50: 5.35

q: State the recorded pIC50 for this entry: N#CCc1cc(-c2ccc3ccccc3c2)n(-c2ccnc(NC3CN(C(=O)C4CC4)C3)n2)n1 [10b]
a: 5.68

q: Same for N#CCc1cc(-c2ccc3c(c2)OCO3)n(-c2ccnc(NC3CN(C(=O)C4CC4)C3)n2)n1 [10c]
a: 5.25

q: Same for N#CCc1cc(-c2ccc3ccccc3c2)n(-c2ccnc(N[C@H]3CCCN(C(=O)C4CC4)C3)n2)n1
a: 6.08

q: Same for N#CCc1cc(-c2ccc3c(c2)CCO3)n(-c2ccnc(N[C@H]3CCN(C(=O)C4CC4)C3)n2)n1
a: 5.49

q: Same for N#CCc1cc(-c2ccc3ccccc3c2)n(-c2ccnc(N[C@H]3CCN(C(=O)C4CC4)C3)n2)n1
a: 5.54

q: Same for N#CCc1cc(-c2ccc([N+](=O)[O-])cc2)n(-c2ccnc(N[C@@H]3CCN(C(=O)C4CC4)C3)n2)n1
a: 5.10

q: Same for COC(=O)Cc1cc(-c2ccc(Cl)c(Cl)c2)n(-c2ccnc(N[C@H]3CCCN(C(=O)C4CC4)C3)n2)n1 [12a]
a: 6.04

q: Same for N#CCc1cc(-c2ccc3c(c2)OCO3)n(-c2ccnc(N[C@H]3CCCN(C(=O)C4CC4)C3)n2)n1
a: 5.34

q: Same for N#CCc1cc(-c2ccc3c(c2)OCO3)n(-c2ccnc(N[C@H]3CCN(C(=O)C4CC4)C3)n2)n1
a: 5.07

q: Same for N#CCc1cc(-c2ccc(Cl)c(Cl)c2)n(-c2ccnc(N[C@H]3CCCN(C(=O)C4CC4)C3)n2)n1
a: 6.20
